target: Fuc(a1-3)[Gal(b1-4)]GlcNAc(b1-3)Gal(b1-4)[Fuc(a1-3)]GlcNAc(b1-3)Gal(b1-4)[Fuc(a1-3)]GlcNAc; test: glycan array binding signal (z-score within array); higher = stronger binding; details: glycan notation: IUPAC condensed, linker removed
About 410 targets per protein were measured; listed, in parts, are those with the strongest signals and a random draw of the rest.
Could you please report measured glycan array binding signal (z-score) for the items listed next?
Give bare numbers.

Worked examples, 2 binders total:
[[record]]
binder = "Mermaid3 (Stilbonema majum) (protein) MGSSHHHHHHSSGLVPRGSHMAASGWLRSPQGTVVKLYRRSLSWSKADEFCKDVDGRLVVDRTADMHLFLIKNVLKEKKSRVWVGLRRTASHSRTWIWSDGTRQNEGDLDANLWLRDEPNDAAGEEECALFMYSPWEKAWGLNDYLCRGGCRNYQFICEKWIR"
measured = -0.463

[[record]]
binder = "Thrombomodulin (Mus musculus) (protein) ALAKLQPTGSQCVEHECFALFQGPATFLDASQACQRLQGHLMTVRSSVAADVISLLLSQSSMDLGPWIGLQLPQGCDDPVHLGPLRGFQWVTGDNHTSYSRWARPNDQTAPLCGPLCVTVSTATEAAPGEPAWEEKPCETETQGFLCEFYFTASC"
measured = -0.183


Value of measured glycan array binding signal (z-score) for the entry LTL (Lotus tetragonolobus), P19664 (protein) VSFNYTEFKDDGSLILQGDAKIWTDGRLAMPTDPLVNNPKTTRSAGRALYATPVPIWDSATGNVASFVTSFNFLFVIRELKYTPTDGLVFFLAPVGTEIPSGSTGGFLGIFDGSNGFNQFVAVEFDSYHNIWDPKSLRSSHVGIDVNSIMSLKAVNWNRVSGSLEKATIIYDSQTNILSVVMTSQNGQITTIYGTIDLKTVLPEKVSVGFSATTGNPEREKHDIYSWSFTSTLKEPEEQA : 8.86
